- System: RXF 393 renal
- run-description: NCI-60 one-dose screen, 48 h (100 = growth as untreated, 0 = no growth, -100 = all killed)
- experimental-conditions: 10 µM unless noted
About 83,000 compounds went through this panel and 20% of them were active in at least one assay; those are over-represented in the sample as a whole.
# growth per record follows
// note: answer is a bare numeric in %

Below are worked cases with known answers.
molecule | units-text | endpoint-result
COc1ccc2[nH]cc(-c3cc4nc(-c5cn(C)c6ncccc56)cc(N)n4n3)c2c1 | % | -62.3
CCOc1ccc2[nH]c(=O)c(C(c3nnnn3CC3CCCO3)N3CCN(Cc4ccccc4)CC3)cc2c1 (stereo not given) | % | 58.7
CS(=O)(=O)Nc1cc(-c2ccc3ncnc(Nc4ccc(OCc5cccnc5)c(Cl)c4)c3c2)cnc1Cl | % | 0.962
NNc1ncnc2sc3c(c12)CCN(Cc1ccccc1)C3 | % | 69.3

Shift focus to the following entry.
The molecule listed as Cc1cccc(/C=C/c2ccc(NC(=S)NCCCCN(C)C)cc2)c1 shows growth equal to -91.8

====

- System: TK-10 renal
- run-description: NCI-60 one-dose screen, 48 h
- experimental-conditions: 10 µM unless noted
The panel holds about 83,000 compounds, 20% with a hit somewhere; the sample as a whole holds those more often. Activity calls are given as the source filed them. Rule for the calls: active = growth percent below 10; inactive = the rest.
Reply using exactly one outcome from active, inactive

Before answering, review these 10 worked examples.
compound | class-name
NS(=O)(=O)c1cccc(Nc2nc(SCC(=O)c3ccc(F)cc3)nc3ccccc23)c1 | inactive
Nc1ccc(-c2ccc3ncnc(N4CCc5cc(F)c(Cl)cc54)c3c2)cn1 | active
Fc1cccc(CNc2nc(SCCN3CCOCC3)nc3c2cnn3CC(Cl)c2ccc(Br)cc2)c1 (centres undefined) | inactive
FC(F)(F)c1cc2c(Cl)ncnc2n1CCN1CCOCC1 | inactive
O=C1Nc2cc(-c3ccc(NS(=O)(=O)c4ccc([N+](=O)[O-])cc4)cc3)ccc2/C1=C/c1ccc[nH]1 | active
Nc1nc2cc(-c3ccc4ncnc(NCc5ccccc5)c4c3)ccc2o1 | active
COc1ccc(-c2cc(-c3cc(C(C)C)c(O)cc3C)nn2-c2ccc(S(N)(=O)=O)cc2)cc1 | inactive
Fc1ccc(F)c(CNc2nc(SCCN3CCOCC3)nc3c2cnn3CC(Cl)c2ccc(Br)cc2)c1 (centres undefined) | inactive
COc1ccccc1NC(=O)c1ccc(NC(=O)CCl)s1 | active
COc1ccc(NC2=C(I)C(=O)C(C)=C(C)C2=O)cc1 | inactive

How was O=C(Cn1c(-c2ccccc2)nc2ccccc21)N=Nc1c(O)[nH]c2ccc(Br)cc12 classified in this test?
active

What outcome does the record of this test show for COc1cncc(-c2ccc3ncnc(N4CCc5ccc(Cl)cc54)c3c2)c1 ?
active

Given CC(C)C[C@H](NC(=O)CNC(=O)C[C@H]1O[C@@H]2OC3(C)CC[C@H]4[C@H](C)CC[C@@H]([C@H]1C)[C@@]24O3)B(O)O , state the outcome it received in this test.
inactive

Test call for this compound, please: Cc1nn(-c2ccccc2)c2nc(C)n(CC(=O)N/N=C/c3ccccc3O)c(=O)c12
inactive

Would you mind telling me which call this test gave CS(=O)(=O)Nc1cc(-c2ccc3ncnc(N4CCc5cc(F)c(Cl)cc54)c3c2)cnc1Cl ?
active

Lab log entry: COc1ccc(NC(=O)CSc2nnc(-c3ccc(-c4nc5ccccc5[nH]4)cc3)o2)cc1 — outcome as called in the assay?
inactive

====

- Tested on: OVCAR-8 ovarian
- run-description: NCI-60 one-dose screen, 48 h
- experimental-conditions: 10 µM unless noted
Compounds without any hit were thinned out: in the full panel of roughly 83,000, 20% have a hit. Active and inactive are the calls of the source. How the source made its calls: active means growth percent below 10; inactive means the rest.
# valid calls are active, inactive; nothing else

Solved cases (2 shown):
item-smiles | class-name
COc1ccc(N=Nc2c(N)nn3c(-c4ccc(F)cc4)ccnc23)cc1 | inactive
COC(=O)c1cc(C(=O)C(Br)Br)n2c1ccc1c3ccccc3ccc12 | inactive

Query: recorded result category for O=C1c2cccc3c(N4CCN(c5ccccc5)CC4)ccc(c23)C(=O)N1c1cccc(-c2nn(-c3ccccc3)cc2-c2nc3ccccc3s2)c1 in this test
inactive

Record lookup: outcome of this test for O=C(N/N=C/c1ccoc1)c1[nH]c2ccc(Br)cc2c1-c1ccccc1 ?
active

Called result for CCCCCCCCc1ccc(C(=O)Nc2cccc(O)c2)cc1
inactive

====

- Tested on: NCI/ADR-RES ovarian
- run-description: NCI-60 one-dose screen, 48 h
- experimental-conditions: 10 µM unless noted
Compounds without any hit were thinned out: in the full panel of roughly 83,000, 20% have a hit. Calls of active or inactive are those of the source. Rule for the calls: active = growth percent below 10; inactive = the rest.
Your response should consist of one outcome taken from 1 (active), -1 (inactive)

# count of solved cases: 5
compound | class-name
Cc1[nH]nc2ccc3nc(-c4cnn(CCO)c4)c4c(c3c12)CCCC4 | -1
O=C(OCCOCCO)N(c1cccc(Br)c1)c1nc(SCCN2CCOCC2)nc2c1cnn2CC(Cl)c1ccc(Br)cc1 (stereo unspecified) | -1
Cn1cc(-c2cc(N)n3nc(-c4c[nH]c5ccccc45)cc3n2)c2cc(F)ccc21 | -1
O=C(Nc1nc2ccc([N+](=O)[O-])cc2s1)Nc1ccccc1F | 1
COc1cc(/C=N/NC(=O)c2ccc(OCc3nc4ccc(Cl)cc4[nH]3)cc2)cc(OC)c1OC | -1

Call for entry N#C/C(=C/c1ccc(Cl)cc1)c1nnc(NC(=O)c2ccc(-n3c(=O)[nH]c4ccccc4c3=O)cc2)s1 :
-1

How did this test come out for COc1ccc(N=Nc2c(N)nn3c(N)c(C#N)c(-c4ccc(C)cc4)nc23)cc1 ?
-1

Hi team, can someone confirm the assay call for C/C(=N\Nc1ccc(S(N)(=O)=O)cc1)c1cnn(-c2cc(=O)[nH]c3ccc(Br)cc23)c1C ?
-1

Please state the recorded outcome for this compound: COc1ccc(-c2cc(C(=O)N=Nc3c(O)[nH]c4ccc(Cl)cc34)c3ccccc3n2)cc1
-1

Called result for O=C1Nc2ccccc2/C1=C/C(=O)c1cc2ccccc2oc1=O
-1

Hi team, can someone confirm the assay call for Cc1ccc(C(=O)Nc2cc(-c3ccccc3)cc(C(F)(F)F)c2)cc1C#Cc1cnc2cccnn12 ?
-1

Hi team, can someone confirm the assay call for CCN(C(=O)CN1C(=O)/C(=C/c2ccco2)SC1=S)C1CCS(=O)(=O)C1 (stereo unspecified) ?
-1

====

- Test system: SF-539 CNS
- run-description: NCI-60 one-dose screen, 48 h
- experimental-conditions: 10 µM unless noted
Compounds without any hit were thinned out: in the full panel of roughly 83,000, 20% have a hit. Active and inactive are the calls of the source. Rule for the calls: active = growth percent below 10; inactive = the rest.
One label from this list, please: yes (active), no (inactive)

compound | class-name
CCN1C(=O)N(CC)C2NNC(Sc3c(C(=O)O)c4ccccc4n(CC(C)C)c3=O)=NC21 (stereo not given) | yes

Write down the call the test reported for this compound. Item: COc1sc(/C=N/NC(=O)c2[nH]c3ccc(Br)cc3c2-c2ccccc2)cc1Cl
yes

Tell me the recorded outcome of this test for COc1ccc(OC)c(Cn2cc(C#N)c(N)c2C(=O)c2ccc(Br)cc2)c1 .
no

====

- Test system: RPMI-8226 leukemia
- run-description: NCI-60 one-dose screen, 48 h (100 = growth as untreated, 0 = no growth, -100 = all killed)
- experimental-conditions: 10 µM unless noted
Compounds without any hit were thinned out: in the full panel of roughly 83,000, 20% have a hit.
Class true (1): growth at least 50%. Class false (0): growth below 50%.

# example entries with known answers
compound | class-name
O=C(Nc1ccc(-c2ccc3c(c2)NC(=O)/C3=C\c2ccc[nH]2)cc1)Nc1ccc(Cl)c(Cl)c1 | false (0)
CN1C(=O)/C(=C/c2ccco2)S/C1=N/c1nccs1 | true (1)
O=C1CC(c2ccc(I)cc2)OC2C=Cc3ccccc3C12 (stereo not given) | true (1)

Then there is this compound:
Given O=C(N/N=C/c1ccc(Cl)cc1)c1ccc(OCc2nc3ccc(Cl)cc3[nH]2)cc1 , state whether its growth is at least 50%.
false (0)

====

- System: K-562 leukemia
- run-description: NCI-60 one-dose screen, 48 h (100 = growth as untreated, 0 = no growth, -100 = all killed)
- experimental-conditions: 10 µM unless noted
This is part of a sample that, as a whole, favours compounds with a hit. Of some 83,000 tested, about 20% had one in any assay.
outcome-measure: growth (%)
Quick reminder: number only, in %, skip the unit.

Take a look at these entries with their results.
compound | growth (%)
COc1sc(/C=N/NC(=O)c2[nH]c3ccc(Br)cc3c2-c2ccccc2)cc1Cl | 9.98
Nc1nnc(-c2cncc(Br)c2)c(-c2c[nH]c3ccc(Cl)cc23)n1 | 30.5
CCC(=O)c1cc(C(=O)OC)c2ccc3c4ccccc4ccc3n12 | 91.5
O=C(c1ccc(O)cc1)C1[C@H](c2ccc(Cl)cc2)[C@@H](c2ccccc2)NC12C(=O)Nc1ccccc12 (stereo partly drawn) | -8.58
N/C(=N\c1nc2ccc([N+](=O)[O-])cc2s1)NC(=O)Nc1ccccc1Cl | 13

Noted growth for COc1cc(/C=N/NC(=O)c2ccc(OCc3nc4ccc(C)cc4[nH]3)cc2)cc(OC)c1OC , tested on K-562 leukemia: 17.7

Summary: COc1c2c(c(Br)c3c1C(CCc1ccccc1)N(C)CC3)OCO2 (stereo not drawn) , K-562 leukemia, growth = 28.1

Where do the numbers come from? From PubChem BioAssay (NCI).
